- method summary: yeast display, Sf9 membrane polyspecificity reagent, FACS + sequencing; frameworks hold sequencing errors
measurement type: polyreactivity (PSR sort gate)

Query: Please look up its polyreactivity (PSR sort gate): QVQLVESGGCLVQAGGSLRLICAASGSTFRRYAMGWYRQAPGKERELVATISKSGGSTYYADSVKGRFTISRDNAKNTVYLQMNSLKPEDTAVYYCAARSFFYRVSDRRAYIDTNGYWGQGTQVTVSS
Response: high polyreactivity

Query: Here is the next sequence: QVQLVESGGGLVQAGGSLRLSCAASGGIIFYYAMGWYRQAPGKERALVAAISYSGGSTYYADSVKGRFTISRDNAKNTVYLQMNSLKPEDTAVYYCAARTHYFPWPWYVWDYDSWGQGTQVTVSS
Response: low polyreactivity

Query: Here is the next sequence: QVQVVESGGGLVQAGGSLRLSCAASGFIFPYYAMGWYRQAPGKEWELVAAISWSGSNTYYADSVKGRFTISRDNAKNTDYLQMNSLKPEATAVYYCAARYSVYYFVQRNGRYDDWGQGTQVTVSS
Response: high polyreactivity

Query: Here is the next sequence: QVQLVESGGGLVQAGGSLRLSCAASGITFWYYVMGWYRQAPGKERELFAAITLSGGSTYYADSVKGRFTISRDNAKNTVYLQMNSLKPEDTAVYYCNADGSAGIRGKYDYWGQGTQVTVSS
Response: low polyreactivity

Please look at the following sequence next.
Query: Please look up its polyreactivity (PSR sort gate): QVQLVESGGGLVQAVGSLRLSCAASGSIFVKYAMGWYRQAPGKERELVAALSRSGGSTYYADSVKGRFTISRDNAKNTVYLQMNSLKPEDTEVYYCAATYYKGMNYWGQGTQVTVSS
Response: high polyreactivity

###

- method summary: yeast display, Sf9 membrane polyspecificity reagent, FACS + sequencing; frameworks hold sequencing errors
measurement type: polyreactivity (PSR sort gate)

Query: Please look up its polyreactivity (PSR sort gate): QVQLVESGGGLVQAGGSLRLSCAASGSIFRSYAMGWYRQAPGKERELVAGITRGGSTNYADSVKGRFTISRYNAKNTVYLQMNSLKPEDTAVYYCNADTVSLGHSLDDGDYWGQGTQVTVSS
Response: low polyreactivity

Query: Here is the next sequence: QVQLVESGGGLVQAGGSLRLSCAASGLTFDGNTMGWYRQAPGKERELVAAISFDGGNTYADSVKGRFTISRDNAKNTVYLQMISLKPEDTAVYYDYWGQGNQVTVSS
Response: low polyreactivity

Query: Here is the next sequence: QVQLVESDGGLVQAGGSLRLSCAASGSTFRYNAMGWYRQAPGKERELVAAISWGGGTPFYADSVKGRFTISRDNAKNTVYLQMNSLTPEDTAVYYCAASYRDYPWGRYYYWGQGTQVTVSS
Response: low polyreactivity

###

- method summary: yeast display, Sf9 membrane polyspecificity reagent, FACS + sequencing; frameworks hold sequencing errors
measurement type: polyreactivity (PSR sort gate)

Query: Please look up its polyreactivity (PSR sort gate): QVQLVESGGGLVQAGGSLRLSCAAYGFIFIGYTMGWYRQAPGKERELVATISLGDDSTYYADSVKGRFTISRDNAKNTVYLQMNSLKPEDTAVYYCAADQIDGTTSAYDYWGQGTQVTVSS
Response: low polyreactivity

Query: Here is the next sequence: QVQLVESGGGLVQAGGSLRLSCAASGSTLHSYAMGWYRQAPGKERELVAAISFRGGSTYADSVKGRFTISRDNAKNTVYLQMNSLKPEDTAVYYCAAYSLYTMYWGQGTQVTVSS
Response: low polyreactivity

###

- method summary: yeast display, Sf9 membrane polyspecificity reagent, FACS + sequencing; frameworks hold sequencing errors
measurement type: polyreactivity (PSR sort gate)

Observe how each entry below is paired with its result.
Query: Please look up its polyreactivity (PSR sort gate): QVQLVESGGGIVQAGGSLRLSSAASGRIFRYYAMGWYRQAPGKERQLVAAISGSGGITYYADSVKGRFTISRDNAKNTVYLQLNRLKPEDTAVYYCAARYGIRPSVSGGYWGQGTQVTVSS
Response: high polyreactivity

Query: Here is the next sequence: QVQLVESGGGLVQAGGSLRLSCAASGNTFTTYAMGWYRQAPGKERELVAVISRSGGRTYYADSVKGRFTISRDNAKNTVYLQMNSLKPEDTAVYYCATRTYATSEYGYWGQGTQVTVSS
Response: high polyreactivity

Query: Here is the next sequence: QVQLVESGGGLVQAGGSLRLSCAASGSIFSTYAMGWYRQAPGKERELVAALDDDGGSTYYADSVKGRFTISRDNAKNTVYLQMNSLKPEDTAVYYCNADYDGNGWAGDYSDSYDYWGQGTQVTVSS
Response: low polyreactivity

Query: Here is the next sequence: QVQLVESGGGLVQAGGSLRLSCAASGSTFGTNAMGWYRQAPGKEREFVASIRKSGGSTYYADSVKGRFTISRDNSKNTVYLQMNSLKPEDTAVYYCAAVYRRYLGGGYDYWGQGTQVTVSS
Response: high polyreactivity

Query: Here is the next sequence: QVQLVESGGGLVQAGGSLRLSCAASGSILPYYAMGWYRQAPGKERELVAAISDSGGSTYYADSVKGRFTISRDNSKNTVYLQMNILKPEDTAVYYCNAVVRSTAHGYWGQGTQVTVSS
Response: high polyreactivity

Query: Here is the next sequence: QVQLVESGGCLVQAGGSLRLRCAASGSTFDDNVKGWYRPAPRKDRELVAAISSSGGSTYYADSVKGRFTISRDNAKNTVYLQMNSLKPEDTAVYYCNAVYFGLWGYYSRRSYNYWGQGTQVNVSS
Response: low polyreactivity

Please look at the following sequence next.
Query: Please look up its polyreactivity (PSR sort gate): QVQLVESGGGLVQAGGSLRLSCAASGFIFNHYAMGWYRQAPGKEREFVAAISWSGGSTYYADSVKGRFTISRDNAKNTVYLQMNSLKPEDTAVYYCAASYNGLWHGDYDYWGQGTQVTVSS
Response: low polyreactivity

###

- method summary: yeast display, Sf9 membrane polyspecificity reagent, FACS + sequencing; frameworks hold sequencing errors
measurement type: polyreactivity (PSR sort gate)

Query: Please look up its polyreactivity (PSR sort gate): QVQLVDSGGGLVQAGGSLRLSCAASGITFGRNTMGGYRQAPGKERELVAAIDSGGNTYADSVKGRFTISRDNAKNSVYLQMNSLKPEDTAVYYCAVDGGEFSSYGYWGQGTQVTVSW
Response: low polyreactivity

Query: Here is the next sequence: QVQLVESGGGLVQAGGSLRLSCAASGSIFVANAMGWYRPAPGKERELVAAISSGGSTYYADSVKGRFTISRDNAKNTVYLQMNSLKPEDTAVYDCAAGQPNLVVGHYYWGQGTQVTVSS
Response: low polyreactivity

###

- method summary: yeast display, Sf9 membrane polyspecificity reagent, FACS + sequencing; frameworks hold sequencing errors
measurement type: polyreactivity (PSR sort gate)

Query: Please look up its polyreactivity (PSR sort gate): QVQLVESGGGLVQAGGSLRISCAASGFTFTYYTMGWYRQAPGKERELVAAINRSGTSTYYADSVKGRFTISRDNAKNTVYLQMNSLKPEDTAVYYCAAKFTTGYYYGVPRDYWGQGTQVTVSS
Response: high polyreactivity

Query: Here is the next sequence: QVQLVESGGGLVQAGGSLRLSCAASGRTFRRYAMGWYRQAPGKERELVATIRSGDNTNYADSVKGRFTISRDNAKNTVYLQMNSLKPEDTAVYYCNRSPKSGQVTYLYSVNAHYDYWGQGTQVTVSS
Response: low polyreactivity

Query: Here is the next sequence: QVQLVESGGGLVQAVGSLRLSCAASGRIFVYNAMGWYRQAPGKERELVASITSSGGSTYYADSVKGRFTISRDNAKNTFYLQMNSLKPEDTAVYYCAADVQPDTRSTPEMDYWGQGTQVTVSS
Response: low polyreactivity

Query: Here is the next sequence: QVQLVESGGGLVQAGGSLRLSCAASGRTIKYYAMGWDRQAPGKERELVAVISWSGGSTYYADSVKGRFTISRDNAKNTVYLQMISLKPEDTAVYYCNAYVYAYYAGYNYWGQGTQVTVSS
Response: high polyreactivity

Query: Here is the next sequence: QDQLVESGGGLVQAGGSLRLSCAASGFTFPVYAMGWYRQAPGKEWELVAAITRGGSTNYADSVKGRFTISRDNAKNTVYLQMNSLKPEDTAVYYCNADYAVAYHPDLGDYWGQGTQVTVSS
Response: low polyreactivity

New cases:
Query: Please look up its polyreactivity (PSR sort gate): QVQLVESGGGLVQAGGSLRLSCAASGSIFGYNAMGGYRHAPGKEREFVAAINSGGSTYYADSVKGRFTISRDNAKITVYLQLNSLKPEDTAVYYCRRRNVYSTRRYEYWGQGTQVTVSS
Response: high polyreactivity

Query: Here is the next sequence: QVELVESGGGLVQAGGSLRLSCAASGSTFYRYAMGWYRQAPGKEREFVARIDWSDGSTNYADSVKGRFTISRDTAKNTVYLQMNSLKPEDTAVYYCAADTYYDTYDGEYEYWGQGTQVTVSS
Response: low polyreactivity

Query: Here is the next sequence: QVQLVESGGGLVQAGGSLRLSCAASGSTFFIYAMGRYRQAPGEERELVAAITSGGTYADSVKGRFTISRDNAKNTVYLQMNSLKPVDTAVYYCNAGNNVVVDYDYWGQGTQVTVSS
Response: low polyreactivity

Query: Here is the next sequence: QVQLVESGGGLVQAGGSLRLSCAASGSTFTVYAMGWYRQAPGKERELVAAISESGTSTYYADSVKGRFTISRDNAKNTVYLQMNSLNPEDTAVYYCAADGPGTSEDDYWGQGTQVTVSS
Response: high polyreactivity

Query: Here is the next sequence: QVQLVESGGGLVQAGGSLRLSCAASGRIFPRYAMAWYRQAPGKERELVARITRRGGITYYADSVKGRFTISRDNAKNTVYLQMNSLKPEDTAVYYCNVDYYRGGDFSYGYDYWGQGTQVTVSS
Response: high polyreactivity

Query: Here is the next sequence: QVQLVESAGGLVQAGASLRLSCDASGRIFPSNAMGWSRQAPGKERELVAAITSSGGSTYYADSVKGRFTISRDYAKNTVYLQMNSLKPEHTAVYYCPARFYSGPGGYTIYYWGQGTQVTVSS
Response: high polyreactivity
